# System: SF-268 CNS
# assay.notes: NCI-60 one-dose screen, 48 h
# condition: 10 µM unless noted
The panel holds about 83,000 compounds, 20% with a hit somewhere; the sample as a whole holds those more often. The source made the active and inactive calls. Rule for the calls: active = growth percent below 10; inactive = the rest.
Classes used: 1.0 (active), 0.0 (inactive)

compound="CCN1C(=O)N(CC)C2C1NN=c1s/c(=C\\c3ccc[nH]3)c(=O)n12 (stereo not given)" label_class=0.0
compound=CSC(SC)=C(C#N)c1nc2ccccc2s1 label_class=0.0
compound="CC(=O)ON1CCCC(P(=O)(OCCSC(=O)C(C)(C)C)OCCSC(=O)C(C)(C)C)C1=O (stereo not given)" label_class=0.0
compound=Cc1cccc[n+]1C1c2ccccc2-c2ccccc21 label_class=0.0
compound=O=C(O)COc1ccc(Cl)c(Cl)c1 label_class=0.0
compound=Cc1ncc(C(=O)Nc2ccc(CN3CCN(C)CC3)c(C(F)(F)F)c2)cc1C#Cc1cnc(N)c2ncccc12 label_class=0.0
compound=CNC(=O)c1ccccc1Nc1nc(Nc2cc(OC)c(OC)c(OC)c2)ncc1Br label_class=1.0
compound=CN1CCN(c2ccc(NC(=O)c3cncnc3Nc3ccc(OCc4cccc(F)c4)c(Cl)c3)cc2)CC1 label_class=0.0
compound=NS(=O)(=O)c1ccc(C(=O)NN2C(=O)c3c(Br)c(Br)c(Br)c(Br)c3C2=O)cc1 label_class=0.0
compound=CCCCNc1nnc2n(Cc3ccccc3)c(=O)c3c4c(sc3n12)CCCC4 label_class=0.0
compound=O=C(CCCCCCN1CC(=O)N2[C@H](c3ccc(Cl)cc3)c3[nH]c4ccccc4c3C[C@@H]2C1=O)NO label_class=0.0
compound=N#C/C(=C\c1ccc([N+](=O)[O-])cc1)n1nnc2cc(F)c(F)cc21 label_class=0.0
compound=Fc1cccc(-c2ccc3c(c2)C2(CCNCC2)CN3)c1 label_class=0.0
compound=CN1C(=O)/C(=C/c2ccc(C(=O)Nc3ncc(Cc4cccc(Cl)c4)s3)cc2)SC1=S label_class=0.0
compound=Cc1ccc(S(=O)(=O)N2CCC(=O)c3ccccc32)cc1 label_class=0.0
compound=O=c1c2ccccc2c(=O)c2c1sc1c(=O)c3ccc(O)cc3c(=O)c12 label_class=1.0
compound=O=C1/C(=C\c2cccc3nccnc23)SC(=S)N1CCc1ccc(O)cc1 label_class=0.0
compound=C=CCn1c(SCC(=O)Nc2ccc(/C(C)=N/O)cc2)nnc1-c1cc(-c2ccc(S(N)(=O)=O)cc2)nc2ccccc12 label_class=0.0
compound=O=C(CCl)NNc1nccc(Nc2ccc(S(=O)(=O)Nc3ccncc3)cc2)n1 label_class=0.0
compound=Oc1c(CN2CCCC2)cc(CSCc2ccccc2)c2cccnc12 label_class=0.0
compound=N#C/C(=C\c1cn(Cc2ccccc2)c2ccccc12)C(=O)Nc1ncc(Cc2ccccc2Cl)s1 label_class=0.0
compound=C#CCNC(=O)[C@]1(C)CCC[C@@]2(C)[C@H]1CC=C1C=C(C(C)C)CC[C@@H]12 label_class=0.0
compound=Cc1ccc(/C=C/C(=O)c2ccc(-n3cc(CN4CCN(c5cc6c(cc5F)c(=O)c(C(=O)O)cn6C5CC5)CC4)nn3)cc2)cc1 label_class=0.0
compound=CC(=O)c1ccc(Nc2nccc(-c3ccc4ccccc4c3)n2)cc1 label_class=0.0
compound=O=C(Nc1cnc(Nc2ccc(N3CCOCC3)nc2)nc1Oc1ccc(C(F)(F)F)cc1)c1ccncc1 label_class=0.0
compound=Fc1ccc2[nH]cc(-c3nc(-c4c[nH]c5ccncc45)cs3)c2c1 label_class=1.0
compound=O=S(=O)(NCCNc1nccc(-c2c(-c3cccc(O)c3)nc3occn23)n1)c1ccc(Br)cc1 label_class=0.0
compound=CCOC(=O)c1cnc2c(N=Nc3ccc(OC)cc3)c(N)nn2c1N label_class=0.0
compound=Cn1cc(-c2ccc(-c3cn(C)c4ccc(Cl)cc34)[nH]2)c2cc(Cl)ccc21 label_class=1.0
compound=C[C@H](CCCC(=O)NCC#CCN1CCN(C)CC1)[C@H]1CC[C@H]2[C@@H]3CC[C@@H]4CC(=O)CC[C@]4(C)[C@H]3CC[C@]12C label_class=0.0
compound=Cc1ccc(C)c2c(C)c(C(=O)Nc3cccc(-n4cccn4)c3)oc12 label_class=0.0
compound=COc1ccc(-c2ccc(-c3ccc(C(=N)N)nc3)s2)cc1Cl label_class=1.0
compound=CCCCCCCCCCCCCOC(=O)c1c(C)[nH]c(/C=C2\N=C(c3ccc[nH]3)C=C2OC)c1C label_class=0.0
compound=Cc1cccc(N2CCC(=O)NC2=S)c1 label_class=0.0
compound=COc1cc(/C=N/Nc2ccc(Br)cc2)cc(OC)c1OC label_class=0.0
compound="CCO/C=N/C1=C(C#N)C(c2ccc(F)cc2)c2sc3c(F)cccc3c2O1 (stereo not given)" label_class=0.0
compound=O=c1cc(-c2ccccc2)[nH]c2ncc(-c3ccc(F)cc3)n12 label_class=0.0
compound=C=C1C(=O)O[C@H]2[C@H]1CC/C(COC(=O)/C=C\C(=O)NCc1ccc(Cn3c(=O)sn(CCCCC)c3=O)cc1)=C\CC[C@@]1(C)O[C@@H]21 label_class=0.0
compound=Nc1nc(N)c(N=Nc2ccccc2)c(-c2ccccc2)n1 label_class=0.0
compound=S=c1nc2oc(-c3ccccc3)c(-c3ccccc3)c2c(/N=C\c2ccco2)[nH]1 label_class=0.0

----------
# System: NCI-H322M lung
# assay.notes: NCI-60 one-dose screen, 48 h (100 = growth as untreated, 0 = no growth, -100 = all killed)
# condition: 10 µM unless noted
This is part of a sample that, as a whole, favours compounds with a hit. Of some 83,000 tested, about 20% had one in any assay.
Simple rule here: growth less than 90% is rule met, otherwise rule not met.

smiles_entry=CC1CCN(C(=S)SCC(=O)NC(=O)c2ccccc2)CC1 label_class="rule not met"
smiles_entry=COc1ccc2[nH]cc(-c3nc(-c4c[nH]c5c(Cl)nccc45)cs3)c2c1 label_class="rule met"
smiles_entry=Cc1ccc(NC(=O)Cn2c(Br)nc3c2c(=O)n(C)c(=O)n3C)cc1 label_class="rule met"
smiles_entry=CCCCC#Cc1c(I)n(C)c(=O)[nH]c1=O label_class="rule not met"
smiles_entry=C=CCC(CCCC)(C(=O)OCC)C(=O)OCC label_class="rule not met"

----------
# key: entry, value: growth
# System: HOP-62 NSCLC
# assay.notes: NCI-60 one-dose screen, 48 h (100 = growth as untreated, 0 = no growth, -100 = all killed)
# condition: 10 µM unless noted
The panel holds about 83,000 compounds, 20% with a hit somewhere; the sample as a whole holds those more often.
property: growth (%)

smiles_entry=O=C(O)[C@@H](Cc1ccc2ccccc2c1)NC(=O)n1c2ccccc2c2ccccc21 property=growth number=31.3
smiles_entry=Cn1cc(-c2nn3cc(-c4cccs4)nc3s2)c2cc(F)ccc21 property=growth number=28.4
smiles_entry=COc1ccc(/C(C)=C(/c2ccc(OCCCN(C)C)cc2)c2ccc(OC(=O)c3ccccc3)cc2)cc1 property=growth number=92.3
smiles_entry=CC1=C2[C@@H](CC1)[C@]1(C)O[C@@](C3CCCCC3)(C[C@H]1OC(=O)CO)[C@H]2OC(=O)/C=C/c1ccccc1 property=growth number=91

----------
# System: UO-31 renal
# assay.notes: NCI-60 one-dose screen, 48 h (100 = growth as untreated, 0 = no growth, -100 = all killed)
# condition: 10 µM unless noted
About 83,000 compounds went through this panel and 20% of them were active in at least one assay; those are over-represented in the sample as a whole.
property: growth (%)

smiles_entry=CN1CCN(C(=S)SCCCCOc2cc(=O)oc3ccccc23)CC1 number=72.3
smiles_entry=CCN(CC)CCCOc1ccc2ncnc(Nc3ccc(Oc4cccc(C(F)(F)F)c4)c(Cl)c3)c2c1 number=0.274
smiles_entry=Cc1ccc(-c2csc(N(C(=O)N3CCN(c4cc5c(cc4F)c(=O)c(C(=O)O)cn5C4CC4)CC3)c3ccccc3)n2)cc1 number=7.46
smiles_entry=O=C(CN1CCN(c2cc3c(cc2F)c(=O)c(C(=O)O)cn3C2CC2)CC1)N/N=C/c1ccco1 number=88.3
smiles_entry=CCCCCCCC/C=C\CCCCCCCCOc1ccc(CC(=O)NCC[N+]2(C)CCOCC2)cc1 number=93.5
smiles_entry=COc1cc(OC)c(/C=C/C(=O)c2c(O)cc(OC)c(C3CCN(C)CC3)c2OC)c(OC)c1 number=-76.2
smiles_entry=O=C(N=Nc1c(O)[nH]c2ccccc12)Nc1ccc(F)cc1 number=72.8
smiles_entry=CC1(C)CC(=O)c2c(nn(-c3ccc(Br)cc3)c2-c2cn(-c3ccccc3)nc2-c2cccnc2)C1 number=65.4
smiles_entry=O=C(CSc1nc(-c2ccccc2)cc(=O)[nH]1)Nc1nc(-c2ccccc2)cs1 number=65.2

----------
# Tested on: CAKI-1 renal
# assay.notes: NCI-60 one-dose screen, 48 h
# condition: 10 µM unless noted
This is part of a sample that, as a whole, favours compounds with a hit. Of some 83,000 tested, about 20% had one in any assay. Activity calls are given as the source filed them. How the source made its calls: active means growth percent below 10; inactive means the rest.
Outcomes: Y for active, N for inactive

molecule="CCN1C(=O)N(CC)C2Nn3c(s/c(=C\\c4ccccc4Br)c3=O)=NC21 (centres undefined)" label_class=N
molecule=O=C(O)COc1ccc(Cl)c(Cl)c1 label_class=N
molecule=Nc1c(C(=O)Nc2cccc(Cl)c2)sc2nc3c(cc12)CCCC3 label_class=N
molecule=COc1cc(OC)c(/C=C/C(=O)c2c(O)cc(OC)c(C3CCN(C)CC3)c2OC)c(OC)c1 label_class=Y
molecule=C#COc1cccc(Nc2ncnc3cc(NC(=O)[C@@H](C)Cl)ccc23)c1 label_class=N
molecule=CCN(CC)CCCOc1ccc2ncnc(Nc3ccc(Oc4cccc(C(F)(F)F)c4)c(Cl)c3)c2c1 label_class=Y
molecule=CC1(C)CC[C@]2(C(=O)N[C@H](CO)Cc3ccccc3)CC[C@]3(C)C(=CC[C@@H]4[C@@]5(C)CCCNC(C)(C)[C@@H]5CC[C@]43C)[C@@H]2C1 label_class=N
molecule=Cc1cn(-c2cc(NC(=O)c3cncc(C#Cc4c(N)ncc5ccc(F)cc45)c3)cc(C(F)(F)F)c2)cn1 label_class=N
molecule=C#CCOc1cccc(-c2ncnc3cc(NC(=O)C=C)ccc23)c1 label_class=N
molecule="Cc1nc2c(c(=O)[nH]1)C(c1ccccc1)c1ccc3ccccc3c1O2 (centres undefined)" label_class=N
molecule=O=C(O)c1cn(C2CC2)c2cc(N3CCN(C(=O)Nc4nc(-c5ccc(Br)cc5)cs4)CC3)c(F)cc2c1=O label_class=N
molecule="Cn1c2c(c3ccc(Cl)c(Cl)c31)C(C#N)C(C)(C)NC2=O (centres undefined)" label_class=N
molecule=CNC(=O)c1cc(Oc2ccc3c(c2)sc2nc(-c4ccc(OC)cc4)cn23)ccn1 label_class=N
molecule=Fc1cccc(-c2ccc3c(c2)C2(CCNCC2)CN3)c1 label_class=N
molecule=c1nc2ccc(-c3cc4ccc5[nH]ncc5c4c4c3CCCC4)cc2[nH]1 label_class=N
molecule=N#C/C(=C\C=C\c1ccc(-c2cc(Cl)ccc2Cl)o1)c1nc2ccccc2s1 label_class=N
molecule=COCCn1cc(-c2csc(-c3c[nH]c4ccc(Br)cc34)n2)c2cccnc21 label_class=N
molecule=CC1(C)OB(O)c2cc(-c3nc4ccc5[nH]ncc5c4c4c3CCCC4)ccc21 label_class=N
molecule=C=C(CNCCc1ccc(O)cc1)[C@@H]1CC[C@]2(CO)CC[C@]3(C)[C@H](CC[C@@H]4[C@@]5(C)CCC(=O)C(C)(C)[C@@H]5CC[C@]43C)[C@@H]12 label_class=N
